system: HOP-62 NSCLC; test: NCI tumour cell line growth inhibition, 48 h
Observation type: TGI (µM)
Give just the numeric value; µM need not be written.

INPUT: // returns reported TGI for input CC1=C(C(=O)Nc2ccccc2)C2(CCCCC2)C(C#N)=C(SCC(=O)Nc2ccc(Br)cc2)N1
OUTPUT: 32.6

INPUT: Which measured TGI value corresponds to C[N+]1=C(/C=C\C=C\c2ccccc2)C(C)(C)c2ccccc21 ?
OUTPUT: 15.1

INPUT: For the compound N#C/C(=C\c1ccc(Br)cc1)n1nnc2ccc(F)cc21 , what TGI is on record?
OUTPUT: 7.52

INPUT: I am curious: what TGI value has been reported for CC(C)NC(=O)CN1CCN(c2c(O)c3c(c(O)c2Cl)C(=O)C=CC3=O)CC1 ?
OUTPUT: 18.6

INPUT: Param item = Clc1ccc(C(n2cc(Br)cn2)n2cc(Br)cn2)cc1 ; retrieve measured TGI.
OUTPUT: 34.3

----------
Record form. Attribute: log10(TGI). Fill in for each entry.
test system: A498 renal; experiment: NCI tumour cell line growth inhibition, 48 h
*1 amine or outer side, *2 acyl side, *3 side chain or, on linkers, in order; H or OH if unused. Where a SMILES comes first, the peptide text is derived from it. [ ]: non-standard residue; d: D form. X32 = C[C@H](N[*:1])C(=O)C(C)(C)C(=O)[*:2]; Hmpa(2S,3S) = CC[C@H](C)[C@H](O)C(=O)O; NMeY = CN[C@@H](Cc1ccc(O)cc1)C(=O)O; NMeL = CN[C@@H](CC(C)C)C(=O)O; NMeV = CN[C@H](C(=O)O)C(C)C; βAla = NCCC(=O)O
For clarity, the numbers are log10 values of TGI expressed in µM.

INPUT: # log10(TGI) lookup, item CCOC(=O)CCC(NC(=O)c1ccc(OCc2ccc3nc(-c4ccccc4)c(Cl)nc3c2)cc1)C(=O)OCC (configuration not stated)
OUTPUT: 1.89

INPUT: Requested field: log10(TGI). Item: CC[C@H](C)[C@@H]1OC(=O)CCNC(=O)[C@@H](C)NC(=O)C(C)(C)C(=O)[C@H](C)NC(=O)[C@H](Cc2ccc(OC)cc2)N(C)C(=O)[C@H](C(C)C)N(C)C(=O)CNC(=O)[C@H](CC(C)C)N(C)C(=O)CNC1=O (cyclo(G[NMeL]G[NMeV][NMeY](Me)[X32][dA][βAla][Hmpa(2S,3S)]))
OUTPUT: 0.77

INPUT: Look at this compound and give its reported log10(TGI). CO/N=C(\C)c1cccc(Nc2c3ccccc3nc3occc23)c1
OUTPUT: 1.59

INPUT: Look at this compound and give its reported log10(TGI). O=C1C(Cl)=C(Nc2ccc(S(=O)(=O)Nc3ccccn3)cc2)C(=O)c2ccccc21
OUTPUT: 1.65

INPUT: Please look up its log10(TGI): O=c1c(-c2ccccc2)coc2cc(OC/C(=N/O)c3ccccc3)ccc12
OUTPUT: 1.52

INPUT: Quick one: log10(TGI) for CN(C)c1ccc(/C=C/c2cc[n+](C)c(/C=C/c3ccc(N(C)C)cc3)c2)cc1 ?
OUTPUT: 0.26

----------
Provide the recorded TGI for the entries that follow.
system: RXF 393 renal; assay: NCI tumour cell line growth inhibition, 48 h
Enter your answer as a number in µM; do not include the unit.

INPUT: Query (compound): N#Cc1ccc(-n2c3ccccc3c3ccc4c(c32)C(=O)C=CC4=O)cc1 ; field requested: TGI
OUTPUT: 5.32

INPUT: Please give the measured TGI for this compound: CCN1CCN(CC(=O)N2c3cccc4cccc(c34)N(C(=O)CN3CCN(CC)CC3)C2c2cn(-c3ccccc3)nc2-c2cccc([N+](=O)[O-])c2)CC1
OUTPUT: 3.09

INPUT: For Cc1cnc(C(=O)Nc2nc3ccc(S(=O)(=O)Nc4ccc(C5(C(F)(F)F)CC5)cc4)cc3[nH]2)cn1 , what is its reported TGI?
OUTPUT: 1.11

INPUT: Requested read-out: TGI. Entry: CC(C)NC(=O)CN1CCN(c2c(O)c3c(c(O)c2Cl)C(=O)C=CC3=O)CC1
OUTPUT: 2.92
